Test system: A549
assayName: Anticancer activity against human A549 cells assessed as cell growth inhibition measured for 72 hrs by MTT assay
Format: functional, cell-based
conditionSet: A549, 72 h
Class (required): determined from IC50; valid ranges are low-valued: < 1 µM; mid-valued: ≥ 1 µM and < 20 µM; high-valued: ≥ 20 µM

INSERT INTO assay_data (compound, qualitativelabel) VALUES
  ('C=C(c1ccc(Cl)c(Cl)c1Cl)C1COC2(CCCC2)OO1 (stereo unspecified)', 'low-valued'),
  ('C=C(c1ccc(F)c(F)c1)C1COC2(OO1)C1CC3CC(C1)CC2C3 (stereo unspecified)', 'mid-valued'),
  ('C=C(c1ccc(Cl)c(Cl)c1)C1COC(C)(C)OO1 (stereo unspecified)', 'high-valued'),
  ('C=C(c1ccc(Cl)cc1Cl)C1COC2(CCCCC2)OO1 (stereo unspecified)', 'low-valued'),
  ('C=C(c1ccc(Cl)c(Cl)c1Cl)C1COC2(OO1)C1CC3CC(C1)CC2C3 (stereo unspecified)', 'mid-valued'),
  ('C=C(c1ccc(F)cc1F)C1COC2(CCCCC2)OO1 (stereo unspecified)', 'high-valued'),
  ('C=C(c1ccc(Cl)cc1Cl)C1COC2(CCCC2)OO1 (stereo unspecified)', 'mid-valued'),
  ('C=C(c1ccc(Cl)c(Cl)c1)C1COC2(CCCC2)OO1 (stereo unspecified)', 'mid-valued'),
  ('C=C(c1ccc(Cl)c(Cl)c1Cl)C1COC(C)(C)OO1 (stereo unspecified)', 'high-valued'),
  ('C=C(c1ccc(OC)c(F)c1)C1COC2(OO1)C1CC3CC(C1)CC2C3 (stereo unspecified)', 'high-valued'),
  ('C=C(c1ccc(Cl)cc1Cl)C1COC2(OO1)C1CC3CC(C1)CC2C3 (stereo unspecified)', 'mid-valued');

###

Tested on: Plasmodium falciparum
assayName: Antiplasmodial activity against chloroquine-resistant Plasmodium falciparum INDO assessed as growth inhibition by SYBER green 1 dye based fluorescence assay
Assay type: functional, organism-based
pIC50: −log10 of the molar value.
measuredAttribute: pIC50

INSERT INTO assay_data (compound, testedtarget, relationaloperator, resultnumber) VALUES
  ('C=C(c1ccc(Cl)cc1Cl)C1COC2(CCCCC2)OO1 (centres undefined)', 'Plasmodium falciparum', '=', 7.75),
  ('C=C(c1ccc(Cl)cc1Cl)C1COC2(CCCC2)OO1 (centres undefined)', 'Plasmodium falciparum', '=', 8.01),
  ('C=C(c1ccc(Cl)c(Cl)c1)C1COC2(CCCC2)OO1 (centres undefined)', 'Plasmodium falciparum', '<', 7.00),
  ('C=C(c1cc(Cl)cc(Cl)c1OCc1ccccc1)C1COC2(CCCC2)OO1 (centres undefined)', 'Plasmodium falciparum', '=', 7.50),
  ('C=C(c1ccc(F)c(F)c1)C1COC2(CCCC2)OO1 (centres undefined)', 'Plasmodium falciparum', '=', 7.58),
  ('C=C(c1ccc(Cl)c(Cl)c1Cl)C1COC2(CCCC2)OO1 (centres undefined)', 'Plasmodium falciparum', '=', 7.69),
  ('C=C(c1ccc(F)c(F)c1)C1COC2(CCCCC2)OO1 (centres undefined)', 'Plasmodium falciparum', '<', 7.00),
  ('C=C(c1ccc(F)cc1F)C1COC2(CCCC2)OO1 (centres undefined)', 'Plasmodium falciparum', '<', 7.00),
  ('C=C(c1cc(Cl)cc(Cl)c1OCc1ccccc1)C1COC2(OO1)C1CC3CC(C1)CC2C3 (centres undefined)', 'Plasmodium falciparum', '=', 7.65),
  ('C=C(c1ccc(OC)c(F)c1)C1COC2(CCCCC2)OO1 (centres undefined)', 'Plasmodium falciparum', '<', 7.00),
  ('C=C(c1ccc(Cl)c(Cl)c1Cl)C1COC2(CCCCC2)OO1 (centres undefined)', 'Plasmodium falciparum', '<', 7.00),
  ('C=C(c1ccc(OC)c(F)c1)C1COC(C)(C)OO1 (centres undefined)', 'Plasmodium falciparum', '<', 7.00),
  ('C=C(c1ccc(Cl)c(Cl)c1)C1COC2(OO1)C1CC3CC(C1)CC2C3 (centres undefined)', 'Plasmodium falciparum', '=', 7.65),
  ('C=C(c1ccc(F)cc1F)C1COC(C)(C)OO1 (centres undefined)', 'Plasmodium falciparum', '<', 7.00),
  ('C=C(c1ccc(OC)c(F)c1)C1COC2(CCCC2)OO1 (centres undefined)', 'Plasmodium falciparum', '=', 7.96),
  ('C=C(c1ccc(Cl)c(Cl)c1)C1COC2(CCCCC2)OO1 (centres undefined)', 'Plasmodium falciparum', '<', 7.00),
  ('C=C(c1ccc(F)c(F)c1)C1COC2(OO1)C1CC3CC(C1)CC2C3 (centres undefined)', 'Plasmodium falciparum', '=', 7.91),
  ('C=C(c1cc(Cl)cc(Cl)c1OCc1ccccc1)C1COC(C)(C)OO1 (centres undefined)', 'Plasmodium falciparum', '=', 7.40),
  ('C=C(c1cc(Cl)cc(Cl)c1OCc1ccccc1)C1COC2(CCCCC2)OO1 (centres undefined)', 'Plasmodium falciparum', '<', 7.00);
